- Protocol Summary: Displacement of Mant-ATP from human recombinant UCK by fluorescence competition assay
- Condition Description: read-out: Kd(app)
Metric: Kd (µM)
Report as a plain number; the unit µM is understood.

Consider the compound O=c1[nH]c(=O)n(C/C=C/CP(=O)(O)O)cc1Cl and give its measured Kd. 170

---

Catalogue of MCC at 72 h values
- Protocol Summary: Cytotoxicity against human HEL cells after 3 days
- Assay type: cell-based

[
  {
    "Compound Structure String": "Nc1nc2c(ncn2COC(CO)CO)c(=O)[nH]1",
    "MCC at 72 h": "> 100 µM"
  },
  {
    "Compound Structure String": "Cc1cn(C/C=C\\CP(=O)(OCOC(=O)C(C)(C)C)OCOC(=O)C(C)(C)C)c(=O)[nH]c1=O",
    "MCC at 72 h": "≥ 200 µM"
  },
  {
    "Compound Structure String": "O=c1[nH]c(=O)n([C@H]2C[C@H](O)[C@@H](CO)O2)cc1/C=C/Br",
    "MCC at 72 h": "> 250 µM"
  },
  {
    "Compound Structure String": "CC(C)(C)C(=O)OCOP(=O)(C/C=C/Cn1cc(Br)c(=O)[nH]c1=O)OCOC(=O)C(C)(C)C",
    "MCC at 72 h": "200 µM"
  }
]

If you can, please state the reported MCC at 72 h value of Cc1cn(C/C=C/CP(=O)(OCOC(=O)C(C)(C)C)OCOC(=O)C(C)(C)C)c(=O)[nH]c1=O . ≥ 200 µM

Next up: Nc1ccn(C[C@@H](CO)OCP(=O)(O)O)c(=O)n1 > 250 µM

Same lookup for CC(C)(C)C(=O)OCOP(=O)(C/C=C\Cn1cc(Br)c(=O)[nH]c1=O)OCOC(=O)C(C)(C)C , please. > 200 µM

---

- Protocol Summary: Inhibition of human recombinant UCK by Double reciprocal plot analysis
Metric: pKi
// field semantics: pKi = negative decimal log of concentration (mol/L)

[
  {
    "Compound Structure String": "Cc1cn(C/C=C/CP(=O)(O)O)c(=O)[nH]c1=O",
    "Readout Value": 2.92
  }
]

Below: the item to evaluate.
Item O=c1[nH]c(=O)n(C/C=C/CP(=O)(O)O)cc1Cl has what recorded pKi? 3.60
